target system: αCP1-KH3 (third KH domain of poly(C)-binding protein 1, PCBP1/hnRNP E1) (UniProt Q15365 279-356)
Sequence (Q15365 279-356): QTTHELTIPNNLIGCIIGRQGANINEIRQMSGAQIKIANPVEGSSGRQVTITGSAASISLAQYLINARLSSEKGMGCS
assay remarks: SPR
metric: pKd
Quick note: pKd values are minus log10 of concentrations in mol/L.

Q. Supply recorded pKd for CUCUCCUUUCUUUUUCUUCUUCCCUCCCUA (ssRNA) [AR mRNA 3'-UTR 30 nt UC-rich RNA (nt 3296-3325)] here.
A. 5.36
